Provenance of the data: paper PMC11345841

target: EPHA2 (Homo sapiens); construct: purchased Eurofins DiscoverX KINOMEscan (scanTK); assay: KINOMEscan ScanTK; type: binding; details: read-out: %Control @1000nM
Sequence (P29317 24-976): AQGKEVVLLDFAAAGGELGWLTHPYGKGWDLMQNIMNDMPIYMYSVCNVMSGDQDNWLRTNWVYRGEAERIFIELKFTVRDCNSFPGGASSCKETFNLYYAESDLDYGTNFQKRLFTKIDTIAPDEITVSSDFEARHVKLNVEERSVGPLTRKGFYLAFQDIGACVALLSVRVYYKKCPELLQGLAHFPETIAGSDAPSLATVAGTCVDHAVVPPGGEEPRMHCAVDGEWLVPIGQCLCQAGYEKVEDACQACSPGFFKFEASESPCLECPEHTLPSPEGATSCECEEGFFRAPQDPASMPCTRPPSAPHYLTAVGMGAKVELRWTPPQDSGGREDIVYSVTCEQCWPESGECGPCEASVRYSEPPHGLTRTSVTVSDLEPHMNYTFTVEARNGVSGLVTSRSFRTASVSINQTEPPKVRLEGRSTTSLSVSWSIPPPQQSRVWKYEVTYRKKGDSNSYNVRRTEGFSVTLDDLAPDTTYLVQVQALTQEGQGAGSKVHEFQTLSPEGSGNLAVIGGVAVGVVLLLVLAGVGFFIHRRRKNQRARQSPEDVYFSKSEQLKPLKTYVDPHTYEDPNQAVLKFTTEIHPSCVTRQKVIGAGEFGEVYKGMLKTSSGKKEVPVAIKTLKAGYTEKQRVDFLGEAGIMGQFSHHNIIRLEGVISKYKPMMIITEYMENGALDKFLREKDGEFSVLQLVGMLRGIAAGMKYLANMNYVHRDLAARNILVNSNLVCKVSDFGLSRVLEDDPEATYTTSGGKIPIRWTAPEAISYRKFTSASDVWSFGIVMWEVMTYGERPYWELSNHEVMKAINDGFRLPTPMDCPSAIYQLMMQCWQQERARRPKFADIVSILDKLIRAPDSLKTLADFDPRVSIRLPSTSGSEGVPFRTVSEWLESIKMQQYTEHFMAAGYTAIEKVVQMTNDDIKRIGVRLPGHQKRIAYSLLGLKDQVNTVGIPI
quantityName: remaining binding at 1 µM (%)
Numbers only, in %.

Sample answers from the record:
C=CC(=O)N1CCC[C@@H](n2nc(-c3ccc(Oc4ccccc4)cc3)c3c(N)ncnc32)C1 [Compound 1g, Ibrutinib, reference compound] : 100
CNC(=O)c1cnc(S(C)(=O)=O)nc1N1CCCC(n2nc(-c3ccc(Oc4ccccc4)cc3)c3c(N)ncnc32)C1 (centres unmarked) : 98
CCOC(=O)c1cnc(S(C)(=O)=O)nc1N1CCC[C@@H](n2nc(-c3ccc(Oc4ccccc4)cc3)c3c(N)ncnc32)C1 : 98
COC(=O)c1cnc(S(C)(=O)=O)nc1N1CCCC(n2nc(-c3ccc(Oc4ccccc4)cc3)c3c(N)ncnc32)C1 (centres unmarked) : 99

Now look at this one.
Give the reported remaining binding at 1 µM for this compound. Cc1cnc(S(C)(=O)=O)nc1N1CCCC(n2nc(-c3ccc(Oc4ccccc4)cc3)c3c(N)ncnc32)C1 (centres unmarked)
88
